The reported numbers originate from ChEMBL document CHEMBL1137432.

EXPERIMENTAL SYSTEM: Histamine H2 receptor (Homo sapiens)
Sequence (P25021 whole entry): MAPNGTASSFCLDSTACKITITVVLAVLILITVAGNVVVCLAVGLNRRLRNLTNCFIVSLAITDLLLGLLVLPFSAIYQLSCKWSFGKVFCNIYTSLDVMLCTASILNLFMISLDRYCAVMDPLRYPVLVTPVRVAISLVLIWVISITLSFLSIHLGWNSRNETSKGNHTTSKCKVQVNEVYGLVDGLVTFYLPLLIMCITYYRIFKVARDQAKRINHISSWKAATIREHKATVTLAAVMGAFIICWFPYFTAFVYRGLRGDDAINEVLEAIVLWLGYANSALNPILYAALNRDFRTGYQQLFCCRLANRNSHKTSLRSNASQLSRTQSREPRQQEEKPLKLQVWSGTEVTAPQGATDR
EXPERIMENT DESCRIPTION: Displacement of [3H]APT from human histamine H2 receptor transfected in COS7 cells
Type: cell-based, COS-7

{"columns": ["SMILES STRUCTURE", "U", "Ki"],
 "data": [
  ["CN1CCN(C2=Nc3ccc(Cl)cc3Oc3ccccc32)CC1", "µM", 8.71]
]}

====

In this section we review reported Ki values for a set of molecules.
EXPERIMENTAL SYSTEM: Histamine H4 receptor (Homo sapiens, UniProt Q9H3N8)
Sequence (Q9H3N8 whole entry): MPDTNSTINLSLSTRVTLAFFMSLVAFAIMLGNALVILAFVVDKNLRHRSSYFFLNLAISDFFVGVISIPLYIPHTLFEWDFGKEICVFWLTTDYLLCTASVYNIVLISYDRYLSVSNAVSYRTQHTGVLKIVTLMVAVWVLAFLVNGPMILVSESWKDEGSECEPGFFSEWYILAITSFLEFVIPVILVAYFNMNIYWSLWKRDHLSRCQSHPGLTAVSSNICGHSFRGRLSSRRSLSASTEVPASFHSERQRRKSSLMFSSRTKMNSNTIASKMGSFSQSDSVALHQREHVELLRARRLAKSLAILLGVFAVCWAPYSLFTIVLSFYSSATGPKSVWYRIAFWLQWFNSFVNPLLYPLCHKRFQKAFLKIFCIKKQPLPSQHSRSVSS
EXPERIMENT DESCRIPTION: Displacement of [3H]histamine from human histamine H4 receptor transfected in SK-N-MC cells

{"columns": ["SMILES STRUCTURE", "EXPERIMENTAL SYSTEM", "Ki"],
 "data": [
  ["CN1CCN(C2=Cc3ccccc3Oc3ccc(Cl)cc32)CC1", "Histamine H4 receptor (Homo sapiens, UniProt Q9H3N8)", "> 10 µM"],
  ["Clc1ccc2c(c1)N=C(N1CCCCC1)c1ccccc1N2", "Histamine H4 receptor (Homo sapiens, UniProt Q9H3N8)", "> 10 µM"],
  ["Clc1ccc2c(c1)N=C(N1CCOCC1)c1ccccc1N2", "Histamine H4 receptor (Homo sapiens, UniProt Q9H3N8)", "> 10 µM"]
]}
